Measured values drawn from patent US11498909B2 for this set.

# measurementProtocol: Pharmacokinetics (PK) determination in SD rats (Experiment 4)
# Type: in vivo
# testSettings: IV 2 mg/kg, plasma
Measured Vz_obs by item
measurementLabel: Vz_obs

| lineNotation | assayResult |
| --- | --- |
| Cn1nc(CO)cc1-c1ccc(C#Cc2ccc(C(=O)N[C@H](C(=O)NO)C(C)(C)N)cc2)cc1 | 17.6 ± 4.22 L/kg |
| C[C@@H](O)[C@H](NC(=O)c1ccc(C#CC#Cc2ccc(CNCCOCCO)s2)cc1)C(=O)NO | 2.16 ± 0.30 L/kg |
| C[C@@H](O)[C@H](NC(=O)c1ccc(C#CC#Cc2ccc(CO)n2C)cc1)C(=O)NO | 1.21 ± 0.34 L/kg |
| C[C@@H](O)[C@H](NC(=O)c1ccc(C#CC#Cc2ccco2)cc1)C(=O)NO | 3.77 ± 0.53 L/kg |

* * *

# Test system: Klebsiella pneumoniae
# measurementProtocol: In vitro antibacterial activity, agar dilution MIC (Experiment 1)
# Type: cell-based
# testSettings: agar dilution, read-out: MIC50
Overview of reported MIC50 across a group of compounds:

| compound | targetOrTestSystem | uom | MIC50 |
| --- | --- | --- | --- |
| C[C@@H](O)[C@H](NC(=O)c1ccc(C#CC#Cc2ccc(CN3CCOCC3)o2)cc1)C(=O)NO | Klebsiella pneumoniae | µg/mL | 1 |
| C[C@@H](O)[C@H](NC(=O)c1ccc(C#CC#Cc2ccc(CO)s2)cc1)C(=O)NO | Klebsiella pneumoniae | µg/mL | 0.125 |
| CC(O)[C@H](NC(=O)c1ccc(C#CC#Cc2ccc(CO)o2)cc1)C(=O)NO (stereo in doubt) | Klebsiella pneumoniae | µg/mL | 1 |
| C[C@@H](O)[C@H](NC(=O)c1ccc(C#CC#Cc2ccc(CNCCOCCO)o2)cc1)C(=O)NO | Klebsiella pneumoniae | µg/mL | 2 |
| C[C@@H](O)[C@H](NC(=O)c1ccc(C#CC#Cc2ccc(CNC3CC3)o2)cc1)C(=O)NO | Klebsiella pneumoniae | µg/mL | 0.5 |

* * *

# measurementProtocol: Pharmacokinetics (PK) determination in SD rats (Experiment 4)
# Assay type: in vivo
# testSettings: IV 2 mg/kg, plasma
measurementLabel: λ_z

| compound | measurementLabel | assayResult |
| --- | --- | --- |
| C[C@@H](O)[C@H](NC(=O)c1ccc(C#CC#Cc2ccc(COCCOCCO)o2)cc1)C(=O)NO [Compound 21] | λ_z | 4.38 ± 0.25 h⁻¹ |
| C[C@@H](O)[C@H](NC(=O)c1ccc(C#CC#Cc2ccc(CN3CCOCC3)s2)cc1)C(=O)NO [Compound 43] | λ_z | 2.48 ± 0.06 h⁻¹ |
| Cc1cc(C#CC#Cc2ccc(C(=O)N[C@H](C(=O)NO)[C@@H](C)O)cc2)oc1CO [Compound 16] | λ_z | 1.67 ± 0.58 h⁻¹ |
| Cn1nc(CO)cc1-c1ccc(C#Cc2ccc(C(=O)N[C@H](C(=O)NO)C(C)(C)N)cc2)cc1 [Compound 37] | λ_z | 0.28 ± 0.08 h⁻¹ |
| C[C@@H](O)[C@H](NC(=O)c1ccc(C#CC#Cc2ccc(CNCCOCCO)s2)cc1)C(=O)NO [Compound 42] | λ_z | 2.35 ± 0.07 h⁻¹ |
| C[C@@H](O)[C@H](NC(=O)c1ccc(C#CC#Cc2ccc(CN3CCOCC3)o2)cc1)C(=O)NO [Compound 23] | λ_z | 3.47 ± 1.09 h⁻¹ |
| C[C@@H](O)[C@H](NC(=O)c1ccc(C#CC#Cc2ccc(CN3CCN(C)CC3)o2)cc1)C(=O)NO [Compound 13] | λ_z | 1.98 ± 0.04 h⁻¹ |
| C[C@@H](O)[C@H](NC(=O)c1ccc(/C=C/C=C/c2ccc(CO)o2)nc1)C(=O)NO [Compound 32] | λ_z | 1.48 ± 0.46 h⁻¹ |
| C[C@@H](O)[C@H](NC(=O)c1ccc(C#CC#Cc2ccc(CO)s2)cc1)C(=O)NO [Compound 41] | λ_z | 2.21 ± 0.29 h⁻¹ |
| CNC(=O)C(C(=O)NO)N(C)C(=O)c1ccc(C#CC#Cc2ccc(CO)o2)cc1 (stereo not drawn) [Compound 5] | λ_z | 0.99 ± 0.15 h⁻¹ |
| C[C@@H](O)[C@H](NC(=O)c1ccc(C#CC#Cc2ccc(CN(C)C)o2)cc1)C(=O)NO [Compound 4] | λ_z | 3.16 ± 1.28 h⁻¹ |
| CNCc1ccc(C#CC#Cc2ccc(C(=O)N[C@H](C(=O)NO)[C@@H](C)O)cc2)o1 [Compound 15] | λ_z | 0.99 ± 0.29 h⁻¹ |
| Cn1nccc1-c1ccc(C#Cc2ccc(-c3ccn(CCC(C)(C(=O)NO)S(C)(=O)=O)c(=O)c3)cc2)cc1 (stereo not drawn) [Compound 38] | λ_z | 0.56 ± 0.04 h⁻¹ |
| C[C@@H](O)[C@H](NC(=O)c1ccc(C#CC#Cc2ccc(CO)n2C)cc1)C(=O)NO [Compound 33] | λ_z | 2.75 ± 0.50 h⁻¹ |
| C[C@@H](O)[C@H](NC(=O)c1ccc(C#CC#Cc2ccco2)cc1)C(=O)NO [Compound 20] | λ_z | 1.70 ± 0.03 h⁻¹ |

* * *

# measurementProtocol: Pharmacokinetics (PK) determination in SD rats (Experiment 4)
# Format: in vivo
# testSettings: Sprague-Dawley (SD), rat, plasma, iv, 2 mg/kg, read-out: AUCINF_obs

| compound | AUC(0-inf), ng·h/mL |
| --- | --- |
| C[C@@H](O)[C@H](NC(=O)c1ccc(/C=C/C=C/c2ccc(CO)o2)nc1)C(=O)NO [Compound 32] | 347 |
| C[C@@H](O)[C@H](NC(=O)c1ccc(C#CC#Cc2ccc(CN(C)C)o2)cc1)C(=O)NO [Compound 4] | 417 |
| C[C@@H](O)[C@H](NC(=O)c1ccc(C#CC#Cc2ccc(CO)s2)cc1)C(=O)NO [Compound 41] | 1590 |
| C[C@@H](O)[C@H](NC(=O)c1ccc(C#CC#Cc2ccc(CN3CCOCC3)s2)cc1)C(=O)NO [Compound 43] | 921 |
| C[C@@H](O)[C@H](NC(=O)c1ccc(C#CC#Cc2ccc(CO)n2C)cc1)C(=O)NO [Compound 33] | 671 |
| Cn1nc(CO)cc1-c1ccc(C#Cc2ccc(C(=O)N[C@H](C(=O)NO)C(C)(C)N)cc2)cc1 [Compound 37] | 426 |
| C[C@@H](O)[C@H](NC(=O)c1ccc(C#CC#Cc2ccc(CNCCOCCO)s2)cc1)C(=O)NO [Compound 42] | 398 |

* * *

# measurementProtocol: Pharmacokinetics (PK) determination in SD rats (Experiment 4)
# Type: in vivo
# testSettings: Sprague-Dawley (SD), rat, plasma, iv, 2 mg/kg, read-out: AUCINF_obs
AUC(0-inf) by entry:
measurementLabel: AUC(0-inf) (ng·h/mL)

| lineNotation | assayResult |
| --- | --- |
| C[C@@H](O)[C@H](NC(=O)c1ccc(C#CC#Cc2ccc(COCCOCCO)o2)cc1)C(=O)NO | 1420 |
| C[C@@H](O)[C@H](NC(=O)c1ccc(C#CC#Cc2ccc(CN3CCN(C)CC3)o2)cc1)C(=O)NO | 493 |
| Cc1cc(C#CC#Cc2ccc(C(=O)N[C@H](C(=O)NO)[C@@H](C)O)cc2)oc1CO | 2790 |
| CNCc1ccc(C#CC#Cc2ccc(C(=O)N[C@H](C(=O)NO)[C@@H](C)O)cc2)o1 | 1350 |

* * *

# measurementProtocol: Pharmacokinetics (PK) determination in SD rats (Experiment 4)
# Assay type: in vivo
# testSettings: IV 2 mg/kg, plasma
measurementLabel: Vz_obs (L/kg)

| compound | measurementLabel | uom | assayResult |
| --- | --- | --- | --- |
| CNC(=O)C(C(=O)NO)N(C)C(=O)c1ccc(C#CC#Cc2ccc(CO)o2)cc1 (stereo not shown) | Vz_obs | L/kg | 0.63 |
| C[C@@H](O)[C@H](NC(=O)c1ccc(C#CC#Cc2ccc(CO)s2)cc1)C(=O)NO | Vz_obs | L/kg | 0.61 |
| Cc1cc(C#CC#Cc2ccc(C(=O)N[C@H](C(=O)NO)[C@@H](C)O)cc2)oc1CO | Vz_obs | L/kg | 0.47 |
| Cn1nccc1-c1ccc(C#Cc2ccc(-c3ccn(CCC(C)(C(=O)NO)S(C)(=O)=O)c(=O)c3)cc2)cc1 (stereo not shown) | Vz_obs | L/kg | 1.81 |

* * *

The following compounds are listed with their measured Cl_obs values.
# measurementProtocol: Pharmacokinetics (PK) determination in SD rats (Experiment 4)
# Format: in vivo
# testSettings: IV 2 mg/kg, plasma
measurementLabel: Cl_obs (mL/min/kg)

| compound | assayResult |
| --- | --- |
| C[C@@H](O)[C@H](NC(=O)c1ccc(C#CC#Cc2ccc(CNCCOCCO)s2)cc1)C(=O)NO | 84.3 |
| C[C@@H](O)[C@H](NC(=O)c1ccc(/C=C/C=C/c2ccc(CO)o2)nc1)C(=O)NO | 96.7 |
| C[C@@H](O)[C@H](NC(=O)c1ccc(C#CC#Cc2ccc(CO)n2C)cc1)C(=O)NO | 56.5 |
| C[C@@H](O)[C@H](NC(=O)c1ccc(C#CC#Cc2ccc(CN3CCOCC3)o2)cc1)C(=O)NO | 30 |
| C[C@@H](O)[C@H](NC(=O)c1ccc(C#CC#Cc2ccco2)cc1)C(=O)NO | 107 |
| Cn1nccc1-c1ccc(C#Cc2ccc(-c3ccn(CCC(C)(C(=O)NO)S(C)(=O)=O)c(=O)c3)cc2)cc1 (stereo not drawn) | 16.8 |
| C[C@@H](O)[C@H](NC(=O)c1ccc(C#CC#Cc2ccc(CN(C)C)o2)cc1)C(=O)NO | 80 |
| CNCc1ccc(C#CC#Cc2ccc(C(=O)N[C@H](C(=O)NO)[C@@H](C)O)cc2)o1 | 25.2 |
| C[C@@H](O)[C@H](NC(=O)c1ccc(C#CC#Cc2ccc(CO)s2)cc1)C(=O)NO | 22 |
| C[C@@H](O)[C@H](NC(=O)c1ccc(C#CC#Cc2ccc(CN3CCN(C)CC3)o2)cc1)C(=O)NO | 69 |
| Cn1nc(CO)cc1-c1ccc(C#Cc2ccc(C(=O)N[C@H](C(=O)NO)C(C)(C)N)cc2)cc1 | 78.5 |
| Cc1cc(C#CC#Cc2ccc(C(=O)N[C@H](C(=O)NO)[C@@H](C)O)cc2)oc1CO | 12 |
| CNC(=O)C(C(=O)NO)N(C)C(=O)c1ccc(C#CC#Cc2ccc(CO)o2)cc1 (stereo not drawn) | 10.3 |
| C[C@@H](O)[C@H](NC(=O)c1ccc(C#CC#Cc2ccc(CN3CCOCC3)s2)cc1)C(=O)NO | 36.5 |
| C[C@@H](O)[C@H](NC(=O)c1ccc(C#CC#Cc2ccc(COCCOCCO)o2)cc1)C(=O)NO | 24.2 |
